- Tgt: T1, human glucagon receptor (human, UniProt P47871 26-477)
- T1 construct: whole, on cells; cAMP assay: transfected HEK293 cells
- Test summary: SPA competition vs 125I-glucagon, receptor membranes
Square brackets hold non-standard residues; d marks the D form. Ends that are not written are not given here. PhLac = O=C(O)[C@@H](O)Cc1ccccc1
Can you tell me log10(IC50) for the items I'm about to list?
Please keep in mind that the values are log10 of IC50 expressed in nM.

-- ask Supply recorded log10(IC50) for C(PEG 5 kDa)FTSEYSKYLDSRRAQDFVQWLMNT-NH2 [[C^5(5kDaPEG), E^9]Glucagon(aa5-29)-NH2] here.
-- reply 2.80

-- ask Consider the binder [PhLac]TC(PEG 1.2 kDa)EYSKYLDSRRAQDFVQWLMNT-NH2 [[PLA^6, C^8(1.2kDaPEG), E^9]Glucagon(aa6-29)-NH2] . State its measured log10(IC50).
-- reply 2.34

-- ask Give recorded log10(IC50). [PhLac]TC(PEG 5 kDa)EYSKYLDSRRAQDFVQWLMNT-NH2 [[PLA^6, C^8(5kDaPEG), E^9]Glucagon(aa6-29)-NH2]
-- reply 2.98

-- ask Find the measured log10(IC50) of [PhLac]TSEYSKYLDSRRAQDFVC(PEG 20 kDa)WLMNT-NH2 [[PLA^6, E^9, C^24(20kDaPEG)]Glucagon(aa6-29)-NH2] and report it.
-- reply 1.95

***
-- ask Look up log10(IC50) of C(PEG 3.4 kDa)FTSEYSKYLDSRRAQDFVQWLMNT-NH2 (also: dimer: Cys5 of two chains joined by 3.4 kDa PEG) [3.4kDaPEG-dimer[C^5, E^9]Glucagon(aa5-29)-NH2] and report it.
-- reply 2.64
